# Tested on: Renilla luciferase RNA
# test.name: Barcoded aptazyme variant library screen: un-cleaved Renilla luciferase RNA by barcode read counts, HEK293-T cells
# Format: cell-based
# assay.conditions: un-cleaved Renilla luciferase RNA, HEK293-T cells cultured with 1 mM theophylline (ON) over without theophylline (OFF); barcode read counts, triplicate
# From the text: Based on the findings from Example 1, an aptazyme variant library was generated from the T3H48 ribozyme with one of seven variant theophylline aptamers inserted sequentially after each nucleotide of the DNA sequence encoding the T3H48 ribozyme sequence. […] The seven variant theophylline aptamers vary in their communication channels, which are the ribonucleotides of the aptamer that attach to the ribozyme sequence (see, Table 2). […]
parameter.measured: Fold change in RNA expression between the ON state and the OFF state (fold)
Give bare numbers, in fold.

Before answering, review these 5 worked examples.
Tell me Fold change in RNA expression between the ON state and the OFF state reported for RA243 (nucleic acid, expressed or natural sequence) DNA: GCGCGTCCTGGATTCGCGGAAACGCGTACATCCAGCCCGGAATACCAGCATCGTCTTGATGCCCTTGGAAGTCCGGTGACGAGTCCCAAATAGGACGAAACGCGC 1.1

Assign Fold change in RNA expression between the ON state and the OFF state to the following record: RA095 (nucleic acid, expressed or natural sequence) DNA: GCGCGTCAGAATACCAGCATCGTCTTGATGCCCTTGGAAGTCTCTGGATTCGCGGAAACGCGTACATCCAGCTGACGAGTCCCAAATAGGACGAAACGCGC 1.6

Report Fold change in RNA expression between the ON state and the OFF state for RA125 (nucleic acid, expressed or natural sequence) DNA: GCGCGTCCTGGATTCGCGGAAACGCGTACATCCAGCTGACGAGTCCCGGAATACCAGCATCGTCTTGATGCCCTTGGAAGTCCGGCCAAATAGGACGAAACGCGC 1.5

Please give measured Fold change in RNA expression between the ON state and the OFF state of the following entry: RA070 (nucleic acid, expressed or natural sequence) DNA: GCGCGTCCTGGATTCGCGGAAACGCGTACATCCAGCTGAGTGATACCAGCATCGTCTTGATGCCCTTGGCAGCACTACGAGTCCCAAATAGGACGAAACGCGC 1.8

Look up Fold change in RNA expression between the ON state and the OFF state of RA078 (nucleic acid, expressed or natural sequence) DNA: GCGCGTCCTGGATTCGCGGAAACGCGTACATCCAGCTGACGAGTCCCAAATAGGACGAAACGCCGAGAATACCAGCATCGTCTTGATGCCCTTGGAAGTCTCGGC and report it. 1.8

Below are some molecules; for each one, tell me its Fold change in RNA expression between the ON state and the OFF state.
1. RA058 (nucleic acid, expressed or natural sequence) DNA: GCGCGTCCTGGATTCGCGGAAACGCGTACATCCAGAGAATACCAGCATCGTCTTGATGCCCTTGGAAGTCTCGCTGACGAGTCCCAAATAGGACGAAACGCGC
2. RA091 (nucleic acid, expressed or natural sequence) DNA: GGAATACCAGCATCGTCTTGATGCCCTTGGAAGTCCGCGCGTCCTGGATTCGCGGAAACGCGTACATCCAGCTGACGAGTCCCAAATAGGACGAAACGCGC
3. RA172 (nucleic acid, expressed or natural sequence) DNA: AGAATACCAGCATCGTCTTGATGCCCTTGGAAGTCTGCGCGTCCTGGATTCGCGGAAACGCGTACATCCAGCTGACGAGTCCCAAATAGGACGAAACGCGC
4. RA088 (nucleic acid, expressed or natural sequence) DNA: GCGCGTCCTGGATTCGCGGAAACGCGTACATCCCGAGAATACCAGCATCGTCTTGATGCCCTTGGAAGTCTCGAGCTGACGAGTCCCAAATAGGACGAAACGCGC
5. RA203 (nucleic acid, expressed or natural sequence) DNA: GCGCGTCCTGGATTCGCGGAAACGCGTACATCCAGCTGACGAGTCCCAAATAGGAAGAATACCAGCATCGTCTTGATGCCCTTGGAAGTCTCGAAACGCGC
6. RA253 (nucleic acid, expressed or natural sequence) DNA: GCGCGTCCTGGATTCGCGGAAACGCGTACATGGAATACCAGCATCGTCTTGATGCCCTTGGAAGTCCCCAGCTGACGAGTCCCAAATAGGACGAAACGCGC
7. RA060 (nucleic acid, expressed or natural sequence) DNA: GCGCGTCCTGGATTCGCGGAAACGCGTACATCCAGCTGACGAGTCCCAAATAGGACGAAACGCGGGAATACCAGCATCGTCTTGATGCCCTTGGAAGTCCC
8. RA159 (nucleic acid, expressed or natural sequence) DNA: GCGCGTCCTGGATTCGCGGAATACCAGCATCGTCTTGATGCCCTTGGAAGTCCGCGGAAACGCGTACATCCAGCTGACGAGTCCCAAATAGGACGAAACGCGC

[2.0, 1.6, 1.3, 1.7, 1.2, 1.1, 1.9, 1.3]

# return recorded Fold change in RNA expression between the ON state and the OFF state for entry RA250 (nucleic acid, expressed or natural sequence) DNA: GCGCGAGTGATACCAGCATCGTCTTGATGCCCTTGGCAGCACTTCCTGGATTCGCGGAAACGCGTACATCCAGCTGACGAGTCCCAAATAGGACGAAACGCGC 1.1
